Test Name: Solubility of COR005 acetate in aqueous media with additives at 25° C.
Type: physicochemical
Experimental Conditions: isotonic PBS with HPB, pH 7.4, PBS pH 7.4 Isotonic; HPB:PEP 1:2; read-out: Solubility of COR005 Acetate (mg/ml) at 25° C.
Result Type: solubility
The answer should read as a number with its unit following.

Return reported solubility; argument: C[C@@H](O)[C@@H]1NC(=O)[C@H](CCCCN)NC(=O)[C@@H](Cc2c[nH]c3ccccc23)NC(=O)[C@H](Cc2c[nH]c3ccccc23)NC(=O)[C@H](Cc2ccccc2)NC(=O)CCCNC(=O)CCCN(CC(N)=O)C(=O)[C@H](Cc2ccccc2)NC1=O [Veldoreotide Acetate]
2.5 mg/mL
